Assign IC50 to each entry below.
Structures can show the parent of a compound that is named as a salt.

## Task Recall the recorded IC50 for CC1CN(c2ccc(-c3ccc(C[C@H](NC(=O)C4CCC(CN)CC4)C(=O)Nc4ccc(-c5nn[nH]n5)cc4)cc3)cn2)CC(C)O1 (mixture of isomers) [Example 9, hydrochloride] with UniProt P00747 and state it.
Sequence (P00747 581-810 limits assumed): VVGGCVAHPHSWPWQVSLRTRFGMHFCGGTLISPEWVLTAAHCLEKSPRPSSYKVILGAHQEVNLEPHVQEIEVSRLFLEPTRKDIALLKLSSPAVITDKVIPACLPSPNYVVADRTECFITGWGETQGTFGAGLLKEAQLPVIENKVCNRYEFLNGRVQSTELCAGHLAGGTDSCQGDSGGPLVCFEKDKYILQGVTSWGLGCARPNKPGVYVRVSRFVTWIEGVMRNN
Sequence (P00747 97-580 partner limits assumed): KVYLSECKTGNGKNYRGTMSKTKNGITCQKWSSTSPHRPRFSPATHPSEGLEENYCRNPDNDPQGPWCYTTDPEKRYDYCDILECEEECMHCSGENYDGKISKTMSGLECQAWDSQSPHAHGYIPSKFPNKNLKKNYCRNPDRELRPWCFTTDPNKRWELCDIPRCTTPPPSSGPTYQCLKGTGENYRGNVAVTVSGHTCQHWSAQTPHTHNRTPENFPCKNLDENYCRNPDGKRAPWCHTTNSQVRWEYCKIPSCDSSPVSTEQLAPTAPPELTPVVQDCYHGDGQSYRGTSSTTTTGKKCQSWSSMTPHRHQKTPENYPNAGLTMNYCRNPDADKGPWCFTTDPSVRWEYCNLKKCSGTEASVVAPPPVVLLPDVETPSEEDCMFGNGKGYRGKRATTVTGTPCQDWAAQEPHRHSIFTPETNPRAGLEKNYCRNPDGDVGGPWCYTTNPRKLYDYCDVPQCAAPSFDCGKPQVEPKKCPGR
## Result 14 nM

## Task Write down the reported IC50 of CCOC(=O)c1ccc(-c2ccc(C[C@H](NC(=O)[C@H]3CC[C@H](CN)CC3)C(=O)Nc3ccc(-c4nn[nH]n4)cc3)cc2)c(C)n1 [Example 58, hydrochloride] , test system: UniProt P00747.
## Result 8.6 nM
